Target under test: DPP IV (Homo sapiens, UniProt P27487)
Sequence (P27487 whole entry, species assumed): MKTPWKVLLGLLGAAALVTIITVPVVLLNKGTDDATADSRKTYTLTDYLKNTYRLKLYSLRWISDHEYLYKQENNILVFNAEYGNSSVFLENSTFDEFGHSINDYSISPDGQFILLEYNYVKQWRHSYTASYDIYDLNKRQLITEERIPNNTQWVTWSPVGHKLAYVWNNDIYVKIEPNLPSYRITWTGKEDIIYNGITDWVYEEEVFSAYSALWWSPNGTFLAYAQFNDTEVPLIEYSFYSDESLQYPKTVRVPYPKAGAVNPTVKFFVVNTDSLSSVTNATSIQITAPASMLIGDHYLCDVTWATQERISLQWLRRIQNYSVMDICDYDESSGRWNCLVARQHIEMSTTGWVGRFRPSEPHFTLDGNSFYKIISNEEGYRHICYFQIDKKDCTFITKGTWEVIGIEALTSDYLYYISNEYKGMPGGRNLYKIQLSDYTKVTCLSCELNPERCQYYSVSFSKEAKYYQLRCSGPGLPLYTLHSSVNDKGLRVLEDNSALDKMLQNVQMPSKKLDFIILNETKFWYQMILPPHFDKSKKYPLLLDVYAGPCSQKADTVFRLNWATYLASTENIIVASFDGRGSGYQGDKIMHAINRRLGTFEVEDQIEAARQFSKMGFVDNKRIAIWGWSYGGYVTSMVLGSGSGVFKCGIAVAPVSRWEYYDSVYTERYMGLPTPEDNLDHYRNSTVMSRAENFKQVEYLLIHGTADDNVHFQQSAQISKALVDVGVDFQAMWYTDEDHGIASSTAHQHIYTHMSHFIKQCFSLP
Protocol summary: In vitro DPP IV enzyme inhibition assay; inhibitors incubated at pH 2 or pH 8, then added to enzyme assay solution at pH 8.0
Type: biochemical
Experimental setup: pH 8; read-out: Tetrapeptide Prodrugs (IC50) pH 8
pIC50: −log10 of the molar value.
Decision: pIC50 >= 7 yields 1 (yes), all other cases yield 0 (no).

Compound: CC(C)C(NC(=O)C1CCCN1C(=O)CN)C(=O)N1CCCC1B(O)O (stereo not drawn)
Label: 1 (yes)
--
Compound: CC(NC(=O)C(N)C1CCCCC1)C(=O)NC(C(=O)N1CCCC1B(O)O)C(C)C (stereo not drawn)
Label: 0 (no)
--
Compound: CC(N)C(=O)N1CCCC1C(=O)NC(C(=O)N1CCCC1B(O)O)C(C)C (stereo not drawn)
Label: 1 (yes)
--
Compound: CC(NC(=O)C1CCCN1C(=O)C(N)C1CCCCC1)C(=O)N1CCCC1B(O)O (stereo not drawn)
Label: 1 (yes)

Now consider the entry below.
API: above_or_equal(metric=pIC50, cutoff=7) for item CC(NC(=O)C(NC(=O)C1CCCN1C(=O)C(N)C1CCCCC1)C1CCCCC1)B(O)O (stereo not drawn) 0 (no)

###

Target under test: DPP IV (Homo sapiens, UniProt P27487)
Protocol summary: In vitro DPP IV enzyme inhibition assay; inhibitors incubated at pH 2 or pH 8, then added to enzyme assay solution at pH 8.0
Type: biochemical
Experimental setup: IC50 Values at Ten Minutes pH 8, pH 8; ten minutes
Readout label: pIC50
For clarity, pIC50 is expressed as the negative log10 of concentration in mol/L.

Data point: NC(Cc1ccc(O)cc1)C(=O)N1CCCC1C(=O)NC(Cc1ccccc1)C(=O)N1CCCC1B(O)O (stereo not shown) [TyrProPheboroPro] ; pIC50 = 7.22

###

Target under test: DPP IV (Homo sapiens, UniProt P27487)
Protocol summary: In vitro DPP IV enzyme inhibition assay; inhibitors incubated at pH 2 or pH 8, then added to enzyme assay solution at pH 8.0
Format: biochemical
Experimental setup: pH 2; read-out: Tetrapeptide Prodrugs (IC50) pH 2
Each entry below carries its reported IC50.
Value expressed in nM; do not type the unit.

Molecule: CC(C)C(NC(=O)C1CCCN1C(=O)C(N)C1CCCCC1)C(=O)N1CCCC1B(O)O (centres unmarked) [ChgProValboroPro]
Quantity unit: nM
IC50: 65
//
Molecule: CC(N)C(=O)N1CCCC1C(=O)NC(C(=O)N1CCCC1B(O)O)C(C)C (centres unmarked) [AlaProValboroPro]
Quantity unit: nM
IC50: 20
//
Molecule: CC(NC(=O)C1CCCN1C(=O)C(N)C1CCCCC1)C(=O)N1CCCC1B(O)O (centres unmarked) [ChgProAlaboroPro]
Quantity unit: nM
IC50: 19

IC50 recorded for this molecule, NCC(=O)N1CCCC1C(=O)N1CCCC1C(=O)N1CCCC1B(O)O (centres unmarked) [GlyProProboroPro] , is 9000

Record summary for CC(NC(=O)C(N)C1CCCCC1)C(=O)NC(C(=O)N1CCCC1B(O)O)C(C)C (centres unmarked) [ChgAlaValboroPro] : reported IC50 = 190

Looking up O=C(C1CCCN1C(=O)C1CCCN1C(=O)C1CCCN1)N1CCCC1B(O)O (centres unmarked) [ProProProboroPro] , I see its IC50 listed as 10000

For record CC(NC(=O)C(NC(=O)C1CCCN1C(=O)C(N)C1CCCCC1)C1CCCCC1)B(O)O (centres unmarked) [ChgProChgboroAla] the listed IC50 is 180

Recorded IC50 (molecule CC(C)C(NC(=O)C1CCCN1C(=O)CN)C(=O)N1CCCC1B(O)O (centres unmarked) [GlyProValboroPro] ): 17

###

Target under test: DPP IV (Homo sapiens, UniProt P27487)
Protocol summary: In vitro DPP IV enzyme inhibition assay; inhibitors incubated at pH 2 or pH 8, then added to enzyme assay solution at pH 8.0
Assay type: biochemical
Experimental setup: pH 2; ten minutes; read-out: IC50 Values at Ten Minutes pH 2
Readout label: pIC50
Reminder that pIC50 is minus the log10 of a molar concentration.

Some compounds with known pIC50 results, for comparison:
Compound: CC(NC(=O)C1CCCN1C(=O)C(N)Cc1ccccc1)C(=O)N1CCCC1B(O)O (stereo not drawn)
Target under test: DPP IV (Homo sapiens, UniProt P27487)
pIC50: 8.22

Compound: CC(NC(=O)C1CCCN1C(=O)C(N)C1CCCCC1)C(=O)N1CCCC1B(O)O (stereo not drawn)
Target under test: DPP IV (Homo sapiens, UniProt P27487)
pIC50: 7.77

Compound: CC(N)C(=O)N1CCCC1C(=O)NC(C(=O)N1CCCC1B(O)O)C(C)C (stereo not drawn)
Target under test: DPP IV (Homo sapiens, UniProt P27487)
pIC50: 7.70

Compound: CC(N)C(=O)NC(C)C(=O)NC(C(=O)N1CCCC1B(O)O)C(C)C (stereo not drawn)
Target under test: DPP IV (Homo sapiens, UniProt P27487)
pIC50: 5.70

Compound: CC(NC(=O)C(N)C1CCCCC1)C(=O)N1CCCC1C(=O)N1CCCC1B(O)O (stereo not drawn)
Target under test: DPP IV (Homo sapiens, UniProt P27487)
pIC50: 5.70

Could you now consider this next compound?
Entry CC(NC(=O)C1CCCN1C(=O)C(N)C(C)(C)C)C(=O)N1CCCC1B(O)O (stereo not drawn) ; assay system DPP IV (Homo sapiens, UniProt P27487); pIC50 recorded at 7.85
